INHIBITION values by entry
System: Plasmodium berghei
Experiment: Screen against P. berghei liver stage (PbLuc), transformed with Luciferase, at 10uM
Assay type: functional, HepG2
Details: tested at 10 uM
Screen size: about 69,000 compounds; about 8,600 (12%) showed an effect of 50% or more. This is one part of a sample in which strong results are shown more often than they occur.
Supply the numeric figure in %, leaving out any unit text.

Here is how some compounds turned out for INHIBITION.
# compound, unit abbrev, INHIBITION
rows = [
    ("O=C(Nc1ccccc1)c1cccc(S(=O)(=O)NC[C@@H]2C[C@H](F)CN2)c1", "%", 60.2),
    ("CCN(C)S(=O)(=O)NCC1CCCN(Cc2ccccc2F)C1 (centres undefined)", "%", 1.74),
    ("O=C1N(CC2CCC2)CCCC12CCN(S(=O)(=O)c1cccnc1)C2 (centres undefined)", "%", -21.8),
    ("Cn1cc(S(=O)(=O)N(CC(F)(F)F)C2CC2)cc1C(N)=O", "%", -29.2),
    ("Cc1cnn(CC2CCCN2CC(=O)N(C)Cc2ccc(C)o2)c1 (centres undefined)", "%", -10.3),
]

Now for the compound whose INHIBITION we want.
What value of measured INHIBITION is listed for Cc1nc(C)n(CC2CCCN2CC(=O)N(C)Cc2ccc(C)o2)n1 (centres undefined) ?
74.2

Hello, the source for this data is ChEMBL document CHEMBL4513216, in case you need it.
